Test: Drug uptake in Sprague-Dawley rat liver at 0.3 mg/kg, po qd administered via gavage measured 7 hrs post last dose on day 14 by LC-MS/MS analysis
Format: ADME, organism-based
Settings: read-out: Drug uptake
ASSAY_READOUT: concentration at 7 h (nM)
Give bare numbers, in nM.

Entry O=C(O)c1cc(F)c2nc(N3C4CCC3CC(OCc3c(-c5ccccc5OC(F)(F)F)noc3C3CC3)C4)sc2c1 (stereo unspecified) — recorded concentration at 7 h = 92.8

----------
Assay: Extraction ratio in rat liver microsomes
Assay type: ADME, microsome
Conditions: read-out: ERH
Exam item: assign YES to entries whose hepatic extraction ratio is below 0.5 and NO to entries at or above 0.5. Note that a value of exactly 0.5 receives NO.

Completed entries (count: 5):
O=C(O)c1cc(F)c2nc(N3C4CCC3CC(OCc3c(-c5ccccc5OC(F)F)noc3C3CC3)C4)sc2c1 (centres undefined) = YES
O=C(O)c1ccc2nc(N3CCC(OCc4c(-c5c(F)cccc5F)noc4C4CC4)CC3)sc2c1 = NO
Cc1cc(C(=O)O)cc2sc(N3C4CCC3CC(OCc3c(-c5ccccc5OC(F)(F)F)noc3C3CC3)C4)nc12 (centres undefined) = YES
O=C(O)c1ccc2nc(N3CCCC(OCc4c(-c5ccccc5OC(F)(F)F)noc4C4CC4)CC3)sc2c1 (centres undefined) = NO
O=C(O)c1ccc2nc(N3CCC(OCc4c(-c5c(Cl)cccc5Cl)noc4C4CC4)CC3)sc2c1 = NO

Moving on to the next compound.
Req: For O=C(O)c1cc(F)c2nc(N3C4CCC3CC(OCc3c(-c5ccccc5C(F)(F)F)noc3C3CC3)C4)sc2c1 (centres undefined) , is the recorded hepatic extraction ratio below the cut-off of 0.5?
Resp: YES
